- MEASURED_TARGET: human CXCR3 (N-delta 4) (Homo sapiens)
- Construct: CD8 leader (N); Flag tag; expressed in transfected cells; membrane preparation
- Sequence (P49682 5-368 limits assumed): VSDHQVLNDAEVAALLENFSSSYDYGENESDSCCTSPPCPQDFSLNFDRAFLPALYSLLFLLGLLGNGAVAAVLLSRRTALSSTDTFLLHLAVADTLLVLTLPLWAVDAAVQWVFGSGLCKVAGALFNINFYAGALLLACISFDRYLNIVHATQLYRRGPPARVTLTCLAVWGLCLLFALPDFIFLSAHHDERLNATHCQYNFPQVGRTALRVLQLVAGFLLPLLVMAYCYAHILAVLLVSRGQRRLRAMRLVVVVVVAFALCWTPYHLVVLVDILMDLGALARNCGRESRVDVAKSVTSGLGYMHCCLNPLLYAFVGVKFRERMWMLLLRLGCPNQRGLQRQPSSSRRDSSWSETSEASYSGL
- PROTOCOL: Human CXCR3 (N-delta 4) scintillation proximity assay (SPA), [125I] IP-10 binding to Ba/F3-hCXCR3 membranes
- TEST_SETTINGS: IC50 rating; [125I] IP-10 displacement, human CXCR3; read-out: IC50
- Source text: The inventive compounds can readily be evaluated to determine activity at the CXCR3 receptors by known methods, such as, for example, development of a human CXCR3 (N-delta 4) Binding Assay. The DNA encoding human CXCR3 was cloned by PCR using human genomic DNA (Promega, Madison, Wis.) as a template. The PCR primers were designed based on the published sequence of human orphan receptor GPR9 (1) with incorporated restriction sites, a Kozak consensus sequence, CD8 leader and Flag tag. […]
pIC50: −log10 of the molar value.
MEASURE_NAME: pIC50

Solved cases below.
- COMPOUND: "CC[C@H]1CN(c2ncc(NS(C)(=O)=O)cc2Cl)CCN1C1CCN(C(=O)c2ccc(Cl)cc2N)CC1 [Compound 24]"
  MEASURED_TARGET: "human CXCR3 (N-delta 4) (Homo sapiens)"
  pIC50: "7.00 to 7.60"
- COMPOUND: "CCC(C)(C)C1CCC(N2CCC(N3C[C@H](C)N(c4ncc(Nc5c(NCC(F)(F)F)c(=O)c5=O)cc4Cl)C[C@H]3C)CC2)C1 (some centres unmarked) [Compound 144]"
  MEASURED_TARGET: "human CXCR3 (N-delta 4) (Homo sapiens)"
  pIC50: "< 7.00"
- COMPOUND: "CC(C)CCN1CCC(N2C[C@H](C)N(c3ncc(Nc4c(NCC(F)(F)F)c(=O)c4=O)cc3Cl)C[C@H]2C)CC1 [Compound 113]"
  MEASURED_TARGET: "human CXCR3 (N-delta 4) (Homo sapiens)"
  pIC50: "< 7.00"
- COMPOUND: "C[C@@H]1CN(C2CCN(Cc3ccc(Cl)cc3F)CC2)[C@@H](C)CN1c1ncc(N)cc1N [Compound 233]"
  MEASURED_TARGET: "human CXCR3 (N-delta 4) (Homo sapiens)"
  pIC50: "< 7.00"
- COMPOUND: "CC[C@H]1CN(c2ncc(NC3=NS(=O)(=O)N=C3N(C)C)cc2Cl)CCN1C1CCN(Cc2ccc(Cl)cc2C(=N)NO)CC1 [Compound 256]"
  MEASURED_TARGET: "human CXCR3 (N-delta 4) (Homo sapiens)"
  pIC50: "7.00 to 7.60"
- COMPOUND: "CC[C@H]1CN(c2ncc(NC3=NS(=O)(=O)N=C3NC3CC3)cc2Cl)CCN1C1CCN(Cc2ccc(C(F)(F)F)cc2)CC1 [Compound 245]"
  MEASURED_TARGET: "human CXCR3 (N-delta 4) (Homo sapiens)"
  pIC50: "> 7.60"
- COMPOUND: "CC[C@H]1CN(c2ncc(NC3=NS(=O)(=O)N=C3N)cc2Cl)CCN1C1CCN(Cc2ccc(Cl)cc2F)CC1 [Compound 259]"
  MEASURED_TARGET: "human CXCR3 (N-delta 4) (Homo sapiens)"
  pIC50: "7.00 to 7.60"
- COMPOUND: "CCNC(=O)Nc1cnc(N2C[C@H](C)N(C3CCN(Cc4ccc(Cl)cc4F)CC3)C[C@H]2C)c(Cl)c1 [Compound 191]"
  MEASURED_TARGET: "human CXCR3 (N-delta 4) (Homo sapiens)"
  pIC50: "< 7.00"
- COMPOUND: "C[C@H]1CN(c2ncc([N+](=O)[O-])cc2Cl)CCN1C1CCN(Cc2ccc(Cl)cc2F)CC1 [Compound 227]"
  MEASURED_TARGET: "human CXCR3 (N-delta 4) (Homo sapiens)"
  pIC50: "< 7.00"
- COMPOUND: "CC[C@H]1CN(c2ncc(NCCCC(F)(F)F)cc2Cl)CCN1C1CCN(Cc2ccc(Cl)cc2)CC1 [Compound 204]"
  MEASURED_TARGET: "human CXCR3 (N-delta 4) (Homo sapiens)"
  pIC50: "7.00 to 7.60"

Input: Please report the measured pIC50 for C[C@@H]1CN(c2ncc(Nc3c(NCC(F)(F)F)c(=O)c3=O)cc2Cl)[C@@H](C)CN1C1CCN(Cc2ccccc2O)CC1 [Compound 153]
Output: < 7.00

Input: Please report the measured pIC50 for C[C@@H]1CN(c2ncc(Nc3c(NCC(F)(F)F)c(=O)c3=O)cc2Cl)[C@@H](C)CN1C1CCN(Cc2cccc(Br)c2)CC1 [Compound 136]
Output: < 7.00

Input: Please report the measured pIC50 for C[C@@H]1CN(c2ncc(Nc3c(NCC(F)(F)F)c(=O)c3=O)cc2Cl)[C@@H](C)CN1C1CCN(C2CCCC2)CC1 [Compound 162]
Output: < 7.00

Input: Please report the measured pIC50 for CC[C@H]1CN(c2ncc(NC(=O)Oc3ccccc3)cc2Cl)CCN1C1CCN(Cc2ccc(Cl)cc2F)CC1 [Compound 189]
Output: 7.00 to 7.60

====

- MEASURED_TARGET: human CXCR3 (N-delta 4) (Homo sapiens)
- Construct: CD8 leader (N); Flag tag; expressed in transfected cells; membrane preparation
- Sequence (P49682 5-368 limits assumed): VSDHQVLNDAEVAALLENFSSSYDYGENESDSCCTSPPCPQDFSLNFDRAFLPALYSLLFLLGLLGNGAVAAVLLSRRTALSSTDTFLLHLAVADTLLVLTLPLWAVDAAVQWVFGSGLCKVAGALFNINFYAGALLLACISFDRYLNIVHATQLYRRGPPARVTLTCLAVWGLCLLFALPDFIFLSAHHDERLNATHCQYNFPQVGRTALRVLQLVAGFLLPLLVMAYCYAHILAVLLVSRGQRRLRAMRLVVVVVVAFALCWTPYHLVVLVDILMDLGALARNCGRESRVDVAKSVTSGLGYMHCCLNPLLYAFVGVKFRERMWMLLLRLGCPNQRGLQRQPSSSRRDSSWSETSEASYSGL
- PROTOCOL: Human CXCR3 (N-delta 4) scintillation proximity assay (SPA), [125I] IP-10 binding to Ba/F3-hCXCR3 membranes
- TEST_SETTINGS: IC50 rating; [125I] IP-10 displacement, human CXCR3; read-out: IC50
Each record here notes measured IC50.

- ITEM_SMILES: "C[C@@H]1CN(c2ncc(Nc3c(NCC(F)(F)F)c(=O)c3=O)cc2Cl)[C@@H](C)CN1C1CCN(Cc2ccccc2OCC(=O)O)CC1"
  MEASURE_NAME: "IC50"
  OBSERVED: "> 100 nM"
- ITEM_SMILES: "CC[C@H]1CN(c2ncc(NC3=NS(=O)(=O)N=C3NCCNS(C)(=O)=O)cc2Cl)CCN1C1CCN(Cc2ccc(Cl)cc2F)CC1"
  MEASURE_NAME: "IC50"
  OBSERVED: "> 100 nM"

Next:
Input: Please report the measured IC50 for C[C@H]1CN(c2ncc(NS(C)(=O)=O)cc2Cl)CCN1C1CCN(C(=O)c2ccc(Cl)cc2)CC1
Output: > 100 nM

====

Each record here notes measured IC50.
- MEASURED_TARGET: human CXCR3 (N-delta 4) (Homo sapiens, UniProt P49682)
- Construct: CD8 leader (N); Flag tag; expressed in transfected cells; membrane preparation
- PROTOCOL: Human CXCR3 (N-delta 4) scintillation proximity assay (SPA), [125I] IP-10 binding to Ba/F3-hCXCR3 membranes
- TEST_SETTINGS: IC50 rating; [125I] IP-10 displacement, human CXCR3; read-out: IC50

- COMPOUND: "CC[C@H]1CN(c2ncc(N/C(N)=N/C#N)cc2Cl)CCN1C1CCN(Cc2ccc(Cl)cc2F)CC1"
  MEASURE_NAME: "IC50"
  OBSERVED: "0.025 to 0.1 µM"
- COMPOUND: "CC[C@H]1CN(c2ncc(NS(C)(=O)=O)cc2Cl)CCN1C1CCN(Cc2ccc(C(=O)OC)cn2)CC1"
  MEASURE_NAME: "IC50"
  OBSERVED: "> 0.1 µM"
- COMPOUND: "CC[C@H]1CN(c2ncc(NS(C)(=O)=O)cc2Cl)CCN1C1CCN(Cc2ccc(Cl)cc2O)CC1"
  MEASURE_NAME: "IC50"
  OBSERVED: "0.025 to 0.1 µM"
- COMPOUND: "CC[C@H]1CN(c2ncc(NC3=NS(=O)(=O)N=C3NC3CC3)cc2Cl)CCN1C1CCN(Cc2ccc(Cl)cc2C(=N)NO)CC1"
  MEASURE_NAME: "IC50"
  OBSERVED: "< 0.025 µM"
- COMPOUND: "CC[C@H]1CN(c2ncc(Nc3ncccn3)cc2Cl)CCN1C1CCN(Cc2ccc(Cl)cc2F)CC1"
  MEASURE_NAME: "IC50"
  OBSERVED: "0.025 to 0.1 µM"
- COMPOUND: "CC[C@H]1CN(c2ncc(NS(C)(=O)=O)cc2Cl)CCN1C1CCN(Cc2cc(C)c(C)s2)CC1"
  MEASURE_NAME: "IC50"
  OBSERVED: "> 0.1 µM"
- COMPOUND: "CC[C@H]1CN(c2ncc(Nc3c(N[C@@H](c4ccc(C)o4)C(C)(C)C)c(=O)c3=O)cc2Cl)CCN1C1CCN([C@H](CO)c2ccc(Cl)cc2)CC1"
  MEASURE_NAME: "IC50"
  OBSERVED: "0.025 to 0.1 µM"
- COMPOUND: "C[C@@H]1CN(C2CCN(Cc3ccc(Cl)cc3F)CC2)[C@@H](C)CN1c1ncc(Nc2c(N)c(=O)c2=O)cc1Cl"
  MEASURE_NAME: "IC50"
  OBSERVED: "< 0.025 µM"
- COMPOUND: "C[C@@H]1CN(c2ncc(Nc3c(NCC(F)(F)F)c(=O)c3=O)cc2Cl)[C@@H](C)CN1C1CCN(Cc2ccc3c(c2)OCO3)CC1"
  MEASURE_NAME: "IC50"
  OBSERVED: "> 0.1 µM"
- COMPOUND: "CC[C@H]1CN(c2ncc(NS(N)(=O)=O)cc2Cl)CCN1C1CCN(C(CO)c2ccc(Cl)cc2)CC1 (stereo partly drawn)"
  MEASURE_NAME: "IC50"
  OBSERVED: "< 0.025 µM"

Input: Lab note: record IC50 of CC[C@H]1CN(c2ncc(NC(=O)C3CCCCC3)cc2Cl)CCN1C1CCN(Cc2ccc(Cl)cc2F)CC1 tested on human CXCR3 (N-delta 4) (Homo sapiens, UniProt P49682).
Output: > 0.1 µM

Input: Lab note: record IC50 of Cc1cc(Nc2c(NCC(F)(F)F)c(=O)c2=O)cnc1N1C[C@@H](C)N(C2CCN(C(=O)c3ccc(C(F)(F)F)cc3)CC2)C[C@@H]1C tested on human CXCR3 (N-delta 4) (Homo sapiens, UniProt P49682).
Output: > 0.1 µM
